I'd be grateful if you could share measured pEC50 for these entries.
TARGET_UNDER_TEST: T1, human PD-1 expressed on cells (human, UniProt Q15116 25-288)
T1 construct: whole, on cells; cell line named under assay; also called CHO-S hPD-1; Raji PD-1
RUN_DESCRIPTION: flow cytometry, CHO-S hPD-1
Numbers only, as −log10 of the molar value.

Here's what some known entries look like.
Request: Look up pEC50 for this binder: z2-XVT458 (antibody, IgG1, V domains shown, full hIgG1; also called XVT458-z2; GH + T071V) VH: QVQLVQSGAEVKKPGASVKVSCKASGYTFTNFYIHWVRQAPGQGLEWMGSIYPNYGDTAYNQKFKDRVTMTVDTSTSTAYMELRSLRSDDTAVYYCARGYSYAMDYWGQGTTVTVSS VL: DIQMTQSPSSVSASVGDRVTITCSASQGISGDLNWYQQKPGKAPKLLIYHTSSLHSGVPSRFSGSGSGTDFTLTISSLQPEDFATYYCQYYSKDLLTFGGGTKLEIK
Response: 8.23

Request: Now try XVT458-z2-m2 (antibody, V domains shown, IgG format; also called z2_XVT458m2) VH: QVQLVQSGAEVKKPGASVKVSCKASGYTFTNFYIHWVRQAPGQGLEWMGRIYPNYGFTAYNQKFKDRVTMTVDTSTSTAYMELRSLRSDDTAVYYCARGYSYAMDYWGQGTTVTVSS VL: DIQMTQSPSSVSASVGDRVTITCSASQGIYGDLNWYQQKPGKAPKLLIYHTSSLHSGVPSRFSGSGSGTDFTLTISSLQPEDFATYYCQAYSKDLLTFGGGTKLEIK .
Response: 8.94

Request: // same read-out, input: XVT458-z2-m4 (antibody, V domains shown, IgG format; also called z2_XVT458m4) VH: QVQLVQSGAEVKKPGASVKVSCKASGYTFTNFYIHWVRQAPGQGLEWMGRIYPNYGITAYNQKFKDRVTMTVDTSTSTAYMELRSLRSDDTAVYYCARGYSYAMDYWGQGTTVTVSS VL: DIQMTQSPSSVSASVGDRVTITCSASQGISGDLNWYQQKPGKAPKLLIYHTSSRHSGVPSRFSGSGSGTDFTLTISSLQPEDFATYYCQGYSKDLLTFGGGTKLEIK
Response: 9.02

Request: And for XVT458-z2-m5 (antibody, V domains shown, IgG format; also called z2_XVT458m5) VH: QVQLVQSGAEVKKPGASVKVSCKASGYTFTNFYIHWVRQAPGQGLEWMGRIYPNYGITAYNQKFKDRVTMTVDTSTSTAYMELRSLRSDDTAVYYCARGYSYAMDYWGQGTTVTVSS VL: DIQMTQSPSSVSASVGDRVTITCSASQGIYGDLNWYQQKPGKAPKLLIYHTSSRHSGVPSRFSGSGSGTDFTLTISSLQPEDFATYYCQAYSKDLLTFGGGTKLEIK ?
Response: 9.08

Request: Next record, please: XVT458-z2-m6 (antibody, V domains shown, IgG format; also called z2_XVT458m6) VH: QVQLVQSGAEVKKPGASVKVSCKASGYTFTNFYIHWVRQAPGQGLEWMGSIYPNYGITAYNQKFKDRVTMTVDTSTSTAYMELRSLRSDDTAVYYCARGYSYAMDYWGQGTTVTVSS VL: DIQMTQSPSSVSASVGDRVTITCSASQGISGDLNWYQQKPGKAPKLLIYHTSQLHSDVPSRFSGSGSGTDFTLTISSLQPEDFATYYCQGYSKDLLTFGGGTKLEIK
Response: 8.81

Working through the 2 binders below one at a time, give pEC50 for each.
1. XVT458-z2-m1 (antibody, V domains shown, IgG format; also called z2-XVT458-m1; z2_XVT458m1) VH: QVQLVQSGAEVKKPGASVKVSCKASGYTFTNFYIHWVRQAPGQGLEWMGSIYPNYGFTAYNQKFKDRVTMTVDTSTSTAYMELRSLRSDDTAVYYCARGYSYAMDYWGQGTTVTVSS VL: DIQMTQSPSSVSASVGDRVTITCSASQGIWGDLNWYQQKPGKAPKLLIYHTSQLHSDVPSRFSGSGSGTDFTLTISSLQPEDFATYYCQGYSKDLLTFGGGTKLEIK
2. XVT458-z2-m3 (antibody, V domains shown, IgG format; also called z2_XVT458m3) VH: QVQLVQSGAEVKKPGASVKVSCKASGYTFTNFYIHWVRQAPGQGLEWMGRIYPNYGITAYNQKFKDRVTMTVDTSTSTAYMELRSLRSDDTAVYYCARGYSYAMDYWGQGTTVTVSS VL: DIQMTQSPSSVSASVGDRVTITCSASQGISGDLNWYQQKPGKAPKLLIYHTSQRHSDVPSRFSGSGSGTDFTLTISSLQPEDFATYYCQGYSKDLLTFGGGTKLEIK

Response:
1: 8.82; 2: 8.87

The origin of these recorded values is patent US20260207767A1.
